# System: Proteus vulgaris
# METHOD_DESCRIPTION: Antibacterial activity against Proteus vulgaris assessed as diameter of inhibition zone measured after 24 hrs by agar disc diffusion method; note: test concentration or dose not given here
# Assay type: functional

- SMILES_DATA: "O=C(NO)[C@@H]1C[C@@H](O)CN1C(=O)c1ccc(C#Cc2ccc(CN3CCOCC3)cc2)cc1"
  VALUE_QUALIFIER: "<"
  diameter of the inhibition zone (DIZ), mm: 6
- SMILES_DATA: "COc1ccc(C#Cc2ccc(C(=O)N3C[C@@H](O)C[C@H]3C(=O)NO)cc2)cc1"
  VALUE_QUALIFIER: "="
  diameter of the inhibition zone (DIZ), mm: 9
- SMILES_DATA: "O=C(NO)[C@@H]1CCCN1C(=O)c1ccc(C#Cc2ccccc2)cc1"
  VALUE_QUALIFIER: "="
  diameter of the inhibition zone (DIZ), mm: 7
- SMILES_DATA: "O=C(NO)[C@@H]1C[C@H](O)CN1C(=O)c1ccc(C#Cc2ccc(CN3CCCC3)cc2)cc1"
  VALUE_QUALIFIER: "<"
  diameter of the inhibition zone (DIZ), mm: 6

* * *

Each entry below carries its recorded MIC.
# System: Escherichia coli
# METHOD_DESCRIPTION: Antibacterial activity against Escherichia coli BL21(DE3) measured after 20 hrs by microdilution method
# Type: functional

- SMILES_DATA: "CN(C)c1ccc(C#Cc2ccc(C(=O)N3C[C@H](O)C[C@H]3C(=O)NO)cc2)cc1"
  TEST_TARGET: "Escherichia coli"
  UNIT_TAG: "µM"
  VALUE_QUALIFIER: "="
  MIC: 256
- SMILES_DATA: "O=C(NO)[C@@H]1C[C@@H](O)CN1C(=O)c1ccc(C#Cc2ccc(CN3CCOCC3)cc2)cc1"
  TEST_TARGET: "Escherichia coli"
  UNIT_TAG: "µM"
  VALUE_QUALIFIER: ">"
  MIC: 256
- SMILES_DATA: "Nc1ccc(C#Cc2ccc(C(=O)N3C[C@@H](O)C[C@H]3C(=O)NO)cc2)cc1"
  TEST_TARGET: "Escherichia coli"
  UNIT_TAG: "µM"
  VALUE_QUALIFIER: ">"
  MIC: 256
- SMILES_DATA: "CN(C)c1ccc(C#Cc2ccc(C(=O)N3C[C@@H](O)C[C@H]3C(=O)NO)cc2)cc1"
  TEST_TARGET: "Escherichia coli"
  UNIT_TAG: "µM"
  VALUE_QUALIFIER: "="
  MIC: 256
- SMILES_DATA: "O=C(NO)[C@@H]1C[C@H](O)[C@H](c2ccc(C#Cc3ccc(CN4CCOCC4)cc3)cc2)O1"
  TEST_TARGET: "Escherichia coli"
  UNIT_TAG: "µM"
  VALUE_QUALIFIER: ">"
  MIC: 256
- SMILES_DATA: "CC1(C)O[C@@H]2[C@H](O1)[C@H](c1ccc(C#Cc3ccc(CN4CCOCC4)cc3)cc1)O[C@@H]2C(=O)NO"
  TEST_TARGET: "Escherichia coli"
  UNIT_TAG: "µM"
  VALUE_QUALIFIER: ">"
  MIC: 256
- SMILES_DATA: "COc1ccc(C#Cc2ccc(C(=O)N3C[C@H](O)C[C@H]3C(=O)NO)cc2)cc1"
  TEST_TARGET: "Escherichia coli"
  UNIT_TAG: "µM"
  VALUE_QUALIFIER: ">"
  MIC: 256
- SMILES_DATA: "O=C(NO)[C@@H]1CCCN1C(=O)c1ccc(C#Cc2ccc(CN3CCOCC3)cc2)cc1"
  TEST_TARGET: "Escherichia coli"
  UNIT_TAG: "µM"
  VALUE_QUALIFIER: "="
  MIC: 64
- SMILES_DATA: "O=C(NO)[C@@H]1C[C@H](O)CN1C(=O)c1ccc(C#Cc2ccc(CN3CCC(O)CC3)cc2)cc1"
  TEST_TARGET: "Escherichia coli"
  UNIT_TAG: "µM"
  VALUE_QUALIFIER: "="
  MIC: 64
- SMILES_DATA: "N[C@H]1C[C@@H](C(=O)NO)N(C(=O)c2ccc(C#Cc3ccc(CN4CCOCC4)cc3)cc2)C1"
  TEST_TARGET: "Escherichia coli"
  UNIT_TAG: "µM"
  VALUE_QUALIFIER: "="
  MIC: 256
- SMILES_DATA: "Nc1ccc(C#Cc2ccc(C(=O)N3C[C@H](O)C[C@H]3C(=O)NO)cc2)cc1"
  TEST_TARGET: "Escherichia coli"
  UNIT_TAG: "µM"
  VALUE_QUALIFIER: ">"
  MIC: 256
- SMILES_DATA: "O=C(NO)[C@@H]1C[C@H](O)CN1C(=O)c1ccc(C#Cc2ccc(CN3CCSCC3)cc2)cc1"
  TEST_TARGET: "Escherichia coli"
  UNIT_TAG: "µM"
  VALUE_QUALIFIER: "="
  MIC: 128
- SMILES_DATA: "O=C(NO)[C@@H]1C[C@H](O)CN1C(=O)c1ccc(C#Cc2ccc(CN3CCCCC3)cc2)cc1"
  TEST_TARGET: "Escherichia coli"
  UNIT_TAG: "µM"
  VALUE_QUALIFIER: ">"
  MIC: 256
